- Tested on: T47D;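 also: growth inhibition of human T47D cells, measured with a cell viability assay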
- test protocol: cells
- Assay type: functional, cell-based, Homo sapiens
- conditions: Homo sapiens, T47D
- Description: SANGER: Inhibition of human T47D cell growth in a cell viability assay.
pIC50: −log10 of the molar value.
quantity measured: pIC50

Take a look at these entries with their results.
compound | test value
Cc1ccc(Nc2nccc(N(C)c3ccc4c(C)n(C)nc4c3)n2)cc1S(N)(=O)=O | < 5.10
CC(=O)O[C@@H]1[C@@H](OC(C)=O)[C@@H](O)[C@H](Oc2c(-c3ccc(O)cc3)oc3cc(O)cc(O)c3c2=O)O[C@H]1C | < 5.00
COc1ccc(-c2ccc3c(N4CCOC[C@@H]4C)nc(N4CCOC[C@@H]4C)nc3n2)cc1CO | 6.56
CN(Cc1cnc2nc(N)nc(N)c2n1)c1ccc(C(=O)N[C@@H](CCC(=O)O)C(=O)O)cc1 [METHOTREXATE] | < 6.70

Q. For the compound shown here, CN(C)C/C=C/C(=O)Nc1cc2c(Nc3ccc(F)c(Cl)c3)ncnc2cc1O[C@H]1CCOC1 , give the reported pIC50.
A. < 6.30

Q. What do you have for CCOc1nc(NC(=O)Cc2cc(OC)ccc2OC)cc(N)c1C#N ?
A. < 5.00

Q. What do you have for Cc1cnc(-c2cnc(NCCNc3ccc(C#N)cn3)nc2-c2ccc(Cl)cc2Cl)[nH]1 ?
A. < 5.59

Q. What do you have for Cn1cncc1[C@@](N)(c1ccc(Cl)cc1)c1ccc2c(c1)c(-c1cccc(Cl)c1)cc(=O)n2C ?
A. < 4.80

Q. What do you have for Nc1ccn([C@@H]2O[C@H](CO)[C@@H](O)[C@@H]2O)c(=O)n1 ?
A. < 5.70

Q. What do you have for Cn1cc(C2=C(c3ccc(Cl)cc3Cl)C(=O)NC2=O)c2ccccc21 ?
A. < 5.00

Q. What do you have for Cc1cc([C@@H](C)Nc2ccccc2C(=O)O)c2nc(N3CCOCC3)cc(=O)n2c1 ?
A. 6.27

Q. What do you have for C[C@]1(O)C[C@@H](c2nc(-c3ccc4ccc(-c5ccccc5)nc4c3)c3c(N)nccn32)C1 ?
A. < 5.59
